B1: Membrane-associated guanylate kinase, WW and PDZ domain-containing protein 2, residues 601 to 682; numbered along this chain, Q86UL8 (parent)
chain: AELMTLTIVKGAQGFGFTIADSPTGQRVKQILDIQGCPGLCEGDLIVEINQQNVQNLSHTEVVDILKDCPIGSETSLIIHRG

Variants of: B1
Assay: abundance fitness (aPCA) (normalised: wild type 0, dead -1); higher = more abundant; growth selection in yeast, the domain comes from the species named
Conditions: Homo sapiens
# abundance fitness binned as I: < -0.1; II: ≥ -0.1 and < -0.04; III: ≥ -0.04

Q26I; I
D44L; I
T75E; II
N50K; III
G39H; III
S22Q; III
I79G; I
Q30F; III
N53A; II
Q51P; I

Query string: Categorize the following entry: E74I
Result string: I

Query string: Categorize the following entry: N56T
Result string: III

Query string: Categorize the following entry: R27D
Result string: I

Query string: Categorize the following entry: I65S
Result string: II

Query string: Categorize the following entry: Q26F
Result string: I

Query string: Categorize the following entry: L77W
Result string: II

Query string: Categorize the following entry: L32S
Result string: III

Query string: Categorize the following entry: E42N
Result string: II

Query string: Categorize the following entry: Q26Y
Result string: III
